# Test system: 252836-082-R-J2-PDC tumor spheroids, viability;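 further: spheroids exposed to agents for seven days before readout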
# test details: Anticancer human tumor 252836-082-R-J2-PDC patient-derived head and neck squamous cell carcinoma cell line growth inhibition [PI3K]
# test settings: second compound 0.0316 µM; first compound 0.0316 µM; hits give low values; spheroids with HUVEC and MSC
Binarize viability, T/C at 80%; below is Condition met, at or above is Condition not met.

Some solved entries appear below for comparison.
CC1(C)CCC(Nc2ncc(C(F)(F)F)c(-c3c[nH]c4c(P(C)(C)=O)c(C#N)ccc34)n2)CN1 (stereo unspecified) + CC(Nc1ncnc2nc[nH]c12)c1cc2cccc(Cl)c2c(=O)n1-c1ccccc1; Condition met
C[C@@H](NC(=O)c1ncnc(N)c1Cl)c1ncc(C(=O)Nc2cc(C(F)(F)F)c(Cl)cn2)s1 + COc1c(OCCCN2CCOCC2)ccc2c3n(c(=NC(=O)c4cnc(N)nc4)nc12)CCN3; Condition met
CCCS(=O)(=O)Nc1ccc(F)c(C(=O)c2c[nH]c3ncc(-c4ccc(Cl)cc4)cc23)c1F + CC(Nc1ncnc2nc[nH]c12)c1cc2cccc(Cl)c2c(=O)n1-c1ccccc1; Condition not met
Cn1ncc(Cl)c1-c1cc(C(=O)NC(CN)Cc2cccc(F)c2)sc1Cl (stereo unspecified) + Cc1nc(NC(=O)N2CCCC2C(N)=O)sc1-c1ccnc(C(C)(C)C(F)(F)F)c1; Condition not met

Here is another compound to look at.
Query block: Record Cn1ncc(Cl)c1-c1cc(C(=O)NC(CN)Cc2cccc(F)c2)sc1Cl (stereo unspecified) + CC(Nc1ncnc2nc[nH]c12)c1cc2cccc(Cl)c2c(=O)n1-c1ccccc1 : is its viability, T/C strictly below 80%?
Result block: Condition not met
